Provide the reported TGI of each item.
System: CAKI-1 renal
Experiment: NCI tumour cell line growth inhibition, 48 h

As a guide, the following entries are already answered.
1) CCOC(=O)/C=C/C(C(=O)/C=C/c1ccc(OC2CCCCO2)c(OC)c1)=C(O)\C=C\c1ccc(OC2CCCCO2)c(OC)c1 (stereo not given)
> 100 µM
2) O=C(CCCn1ccnc1[N+](=O)[O-])NCCn1cncc1[N+](=O)[O-]
> 100 µM

Please report TGI for every entry that follows.
1. COCCOc1cc(F)c2c(Nc3ccc(NC(=O)Cn4cc(C(C)C)nn4)cc3)ncnc2c1
2. COc1ccc(OC)c(NC(=O)C(=O)NNC(=O)c2sc(NNC(C)=O)nc2C)c1
3. Cc1ccc(SC(C)/C=C/NNC2=NC(c3ccccc3)C(c3ccccc3)=NN2)cc1 (stereo not given)

["> 100 µM", "> 100 µM", "46.6 µM"]
